molecular target: Luciferin 4-monooxygenase (Photinus pyralis) (UniProt P08659); assay: FLuc inhibitory activity for the follow-up compounds in a biochemical assay with Km concentrations of substrate; conditions: purified FLuc, Km substrates, luminescence; series mostly up to 57.5 µM
Sequence (P08659 whole entry, looked up): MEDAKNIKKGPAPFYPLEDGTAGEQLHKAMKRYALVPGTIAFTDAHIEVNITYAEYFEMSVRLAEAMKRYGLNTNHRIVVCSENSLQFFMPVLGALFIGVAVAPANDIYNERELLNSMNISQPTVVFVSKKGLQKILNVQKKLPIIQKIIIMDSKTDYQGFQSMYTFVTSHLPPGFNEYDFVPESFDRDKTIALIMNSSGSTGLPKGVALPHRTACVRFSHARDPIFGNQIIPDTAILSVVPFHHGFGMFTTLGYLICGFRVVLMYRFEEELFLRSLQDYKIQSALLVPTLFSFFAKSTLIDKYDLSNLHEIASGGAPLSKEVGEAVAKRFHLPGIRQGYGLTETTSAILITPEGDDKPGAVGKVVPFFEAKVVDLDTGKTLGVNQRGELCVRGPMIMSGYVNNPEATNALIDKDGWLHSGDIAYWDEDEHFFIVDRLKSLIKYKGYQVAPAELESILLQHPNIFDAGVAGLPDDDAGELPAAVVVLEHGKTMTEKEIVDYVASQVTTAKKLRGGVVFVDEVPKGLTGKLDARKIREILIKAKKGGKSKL
Results filed as inconclusive are left out. Calls of active or inactive are those of the source. The call rests on the fitted dose curve; in most records, active means well fitted inhibition curve with a large enough effect; inconclusive means small, poorly fitted or top-dose-only effect; inactive means no such curve, though single readings can be large or run the other way.
Parameter call: string, one of 1 = active, -1 = inactive

Solved cases (8 shown):
>>> group("CC(=O)Nc1cccc(C(=O)Nc2ccccc2C(=O)O)c1")
1
>>> group("O=C(O)c1ccc(NC(=O)c2ccccc2NC(=O)c2ccccc2Br)cc1")
1
>>> group("O=C(Nc1ccccc1C(=O)O)c1cccc(NC(=O)c2ccccc2Br)c1")
1
>>> group("O=C(Nc1ccccc1C(=O)O)c1ccc(Cl)c(S(=O)(=O)N2CCOCC2)c1")
1
>>> group("CCOc1ccc2nc(NC(=O)Cc3cccs3)sc2c1")
1
>>> group("COc1ccc2nc(NC(=O)c3ccc(NS(=O)(=O)c4cccs4)cc3)sc2c1")
1
>>> group("Cc1ccc(C(=O)O/N=C(\\N)c2ccccn2)c(Cl)c1")
1
>>> group("COc1ccc(C(=O)Nc2ccccc2-c2nc3ccccc3s2)c(OC)c1")
-1

Prompt: What is the recorded call for this molecule in the test? COc1ccc(C(=O)Nc2ccccc2C(=O)N/N=C/c2ccc(O)c(OC)c2)cc1
Response: 1

Prompt: What is the recorded call for this molecule in the test? Nc1cccc(-c2nc3ccc(N)cc3s2)c1
Response: 1

Prompt: What is the recorded call for this molecule in the test? Cc1ccc(C(=O)Nc2cccc(C(=O)O)c2)cc1
Response: 1

* * *

molecular target: Luciferin 4-monooxygenase (Photinus pyralis) (UniProt P08659); assay: FLuc inhibitory activity for the follow-up compounds in a biochemical assay with Km concentrations of substrate; conditions: purified FLuc, Km substrates, luminescence; series mostly up to 57.5 µM
Inconclusive results are not listed. Activity calls are given as the source filed them. Calls come from the whole dose curve; as a rule, active = well fitted inhibition curve with a large enough effect; inconclusive = small, poorly fitted or top-dose-only effect; inactive = no such curve, though single readings can be large or run the other way.
Parameter call: string, one of active, inactive

Solved cases (4 shown):
>>> group("O=C(Nc1ccccc1C(=O)O)c1cccc(S(=O)(=O)N2CCCC2)c1")
"active"
>>> group("Cc1ccc(S(=O)(=O)N2CCOCC2)cc1C(=O)Nc1ccccc1C(=O)O")
"inactive"
>>> group("Nc1ccc(-c2nc3ccc(N)cc3s2)cc1")
"active"
>>> group("Cc1ccc2sc(-c3ccc(NC(=O)c4cc(-n5cnnc5)ccc4Cl)cc3)nc2c1")
"active"

Prompt: What is the recorded call for this compound in the test? Cc1c(NS(C)(=O)=O)cccc1-c1nc2ccccc2s1
Response: active

Prompt: What is the recorded call for this compound in the test? O=C(Nc1ccccc1C(=O)O)c1cccc(NC(=O)c2ccco2)c1
Response: active

Prompt: What is the recorded call for this compound in the test? Cc1ccc(S(=O)(=O)N2CCN(C(=O)c3ccccc3-c3nc4ccccc4s3)CC2)c(C)c1
Response: inactive

Prompt: What is the recorded call for this compound in the test? CC(C)c1ccc(C(=O)Nc2ccc(-c3nc4ccccc4s3)c(Cl)c2)cc1
Response: inactive

Prompt: What is the recorded call for this compound in the test? Cc1ccc(NS(=O)(=O)c2ccc(Cl)c(C(=O)Nc3cccc(C(=O)O)c3)c2)cc1
Response: inactive

Prompt: What is the recorded call for this compound in the test? O=C(Nc1ccccc1C(=O)O)c1ccc(NC(=O)C2CCCCC2)cc1
Response: active

Prompt: What is the recorded call for this compound in the test? O=C(Nc1cccc(-c2nc3ccccc3s2)c1)C1=COCCO1
Response: active

Prompt: What is the recorded call for this compound in the test? Cc1ccc(C(=O)Nc2cccc(C(=O)O)c2)cc1S(=O)(=O)N1CCOCC1
Response: active

Prompt: What is the recorded call for this compound in the test? COc1ccc2nc(NC(=O)c3ccc4ncsc4c3)sc2c1
Response: active

Prompt: What is the recorded call for this compound in the test? COc1ccc2nc(NC(=O)c3cccs3)sc2c1
Response: active

Prompt: What is the recorded call for this compound in the test? Cc1ccc(C(=O)Nc2ccc(C(=O)O)cc2)cc1S(=O)(=O)Nc1ccccc1
Response: inactive

Prompt: What is the recorded call for this compound in the test? Cc1c(NC(=O)C(C)(C)C)cccc1-c1nc2ccccc2s1
Response: active

Prompt: What is the recorded call for this compound in the test? COc1ccc2nc(NC(=O)CCc3ccc(OC)c(OC)c3)sc2c1
Response: inactive

Prompt: What is the recorded call for this compound in the test? O=C(Nc1ccccc1C(=O)O)c1ccccc1
Response: active

Prompt: What is the recorded call for this compound in the test? CN(C)S(=O)(=O)c1ccc(C(=O)Nc2ccccc2C(=O)O)cc1
Response: active

Prompt: What is the recorded call for this compound in the test? COc1ccc2nc(NC(=O)c3nc(S(=O)(=O)Cc4ccc(C)cc4)ncc3Cl)sc2c1
Response: inactive

Prompt: What is the recorded call for this compound in the test? COc1ccc(C(=O)Nc2nc3ccc(OC)cc3s2)cc1
Response: active

Prompt: What is the recorded call for this compound in the test? O=C(Nc1ccc(Cl)cc1-c1nc2ccccc2s1)c1ccco1
Response: inactive

* * *

target: Luciferin 4-monooxygenase (Photinus pyralis); test: FLuc inhibitory activity for the follow-up compounds in a biochemical assay with Km concentrations of substrate; conditions: purified FLuc, Km substrates, luminescence; series mostly up to 57.5 µM
Inconclusive results are not listed. The source made the active and inactive calls. The call rests on the fitted dose curve; in most records, active means well fitted inhibition curve with a large enough effect; inconclusive means small, poorly fitted or top-dose-only effect; inactive means no such curve, though single readings can be large or run the other way.
Metric: Potency

Completed entries (count: 2):
>>> result("Cc1ccc2nc(-c3ccc(NC(=O)CN4CCN(C(=O)c5ccco5)CC4)cc3)sc2c1")
"5.8 µM (active)"
>>> result("O=C(O)c1ccc(NC(=O)c2cccc(NC(=O)c3cccs3)c2)cc1")
"9.19 µM (active)"

Let us examine a further case.
Prompt: What does the data say about its Potency? Entry: Cc1ccc(C(=O)Nc2cccc(C(=O)O)c2)cc1S(=O)(=O)N1CCCCC1
Response: 0.0651 µM (active)

* * *

target: Luciferin 4-monooxygenase (Photinus pyralis) (UniProt P08659); experiment: FLuc inhibitory activity for the follow-up compounds in a biochemical assay with Km concentrations of substrate; settings: purified FLuc, Km substrates, luminescence; series mostly up to 57.5 µM
Results filed as inconclusive are left out. Activity calls are given as the source filed them. The call rests on the fitted dose curve; in most records, active means well fitted inhibition curve with a large enough effect; inconclusive means small, poorly fitted or top-dose-only effect; inactive means no such curve, though single readings can be large or run the other way.
Parameter call: string, one of class 1 = active, class 0 = inactive

Solved cases (8 shown):
>>> group("O=C(COC(=O)c1ccccc1[N+](=O)[O-])c1ccc2c(c1)OCO2")
"class 1"
>>> group("COc1cc(OC)cc(C(=O)Nc2ccccc2-c2nc3ccccc3s2)c1")
"class 0"
>>> group("COc1ccc2nc(NC(=O)c3ccc([N+](=O)[O-])o3)sc2c1")
"class 1"
>>> group("Oc1ccc(-c2nc3ccccc3s2)c(O)c1")
"class 1"
>>> group("COc1cc(C(=O)Nc2cc(C)c(O)c(-c3nc4ccccc4s3)c2)cc(OC)c1OC")
"class 0"
>>> group("CCOc1ccc2nc(NC(=O)c3ccccn3)sc2c1")
"class 1"
>>> group("COc1ccc(Br)cc1C(=O)Nc1ccc(C(=O)O)cc1")
"class 0"
>>> group("O=C(Nc1ccccc1C(=O)O)c1cc(S(=O)(=O)Nc2ccccc2)ccc1Cl")
"class 0"

Prompt: What is the recorded call for this compound in the test? O=C(Nc1ccccc1C(=O)O)c1ccc(NC(=O)C2CCCO2)cc1 (centres undefined)
Response: class 1

Prompt: What is the recorded call for this compound in the test? COc1ccc2nc(NC(=O)Cc3cccs3)sc2c1
Response: class 1

Prompt: What is the recorded call for this compound in the test? O=C(O)c1cccc(NC(=O)c2cccc(S(=O)(=O)N3CCCCC3)c2)c1
Response: class 1

Prompt: What is the recorded call for this compound in the test? COc1ccccc1C(=O)Nc1ccc(C(=O)O)cc1
Response: class 0

Prompt: What is the recorded call for this compound in the test? Cc1c(NC(=O)c2cc(-n3cnnc3)ccc2Cl)cccc1-c1nc2ccccc2s1
Response: class 1

Prompt: What is the recorded call for this compound in the test? COc1ccc2nc(NC(=O)CCc3nc(-c4ccccc4F)no3)sc2c1
Response: class 0

* * *

target: Luciferin 4-monooxygenase (Photinus pyralis) (UniProt P08659); assay: FLuc inhibitory activity for the follow-up compounds in a biochemical assay with Km concentrations of substrate; conditions: purified FLuc, Km substrates, luminescence; series mostly up to 57.5 µM
Records with an inconclusive call do not appear. Active and inactive are the calls of the source. Calls come from the whole dose curve; as a rule, active = well fitted inhibition curve with a large enough effect; inconclusive = small, poorly fitted or top-dose-only effect; inactive = no such curve, though single readings can be large or run the other way.
Parameter call: string, one of YES = active, NO = inactive

Solved cases (8 shown):
>>> group("O=C(O)c1cccc(NC(=O)c2cccc(NC(=O)C3CCCO3)c2)c1 (stereo not drawn)")
"YES"
>>> group("O=C(Cc1ccccc1)Nc1ccc(C(=O)Nc2ccccc2C(=O)O)cc1")
"YES"
>>> group("O=C(O)c1cccc(NC(=O)c2ccc(Cl)c(S(=O)(=O)N3CCCCCC3)c2)c1")
"YES"
>>> group("COc1ccc2nc(NC(=O)c3ccco3)sc2c1")
"YES"
>>> group("O=C(O)c1cccc(NC(=O)c2cccc(S(=O)(=O)N3CCc4ccccc43)c2)c1")
"YES"
>>> group("COc1cc(OC)cc(C(=O)Nc2ccc(-c3nc4ccccc4s3)c(C)c2)c1")
"NO"
>>> group("Nc1ccccc1C(=O)Nc1cccc(C(=O)O)c1")
"YES"
>>> group("O=C(Nc1ccccc1C(=O)O)c1cccc(S(=O)(=O)Nc2ccc(Br)cc2)c1")
"NO"

Prompt: What is the recorded call for this molecule in the test? O=C(O)c1cccc(NC(=O)c2ccc(COc3ccc(Cl)cc3)cc2)c1
Response: YES

Prompt: What is the recorded call for this molecule in the test? Nc1ccccc1-c1nc2ccccc2s1
Response: YES

Prompt: What is the recorded call for this molecule in the test? O=C(Nc1ccccc1C(=O)O)c1ccc(NC(=O)C2CC2)cc1
Response: YES

Prompt: What is the recorded call for this molecule in the test? O=C(Nc1c(Cl)cc(Cl)cc1-c1nc2ccccc2s1)c1ccc(Br)o1
Response: NO

Prompt: What is the recorded call for this molecule in the test? CCOC(=O)N1CCN(CC(=O)Nc2nc3ccc(OC)cc3s2)CC1
Response: NO
